TEST_READOUT: melting point

Answered examples (4):
> print(dat)
                                compound   test.readout         result
1          Nc1cnn(-c2cccc(C(F)(F)F)c2)c1  melting point    82 to 84 °C
2  COc1cc(NS(=O)(=O)c2ccc(N)cc2)cc(OC)c1  melting point  153 to 155 °C
3             Cc1c(Br)ccc(S(N)(=O)=O)c1C  melting point  195 to 197 °C
4              O=C(O)c1cnc(S)n1-c1ccccc1  melting point  245 to 247 °C

Note: attention shifts to another entry.
Enquiry: Item under review: CN(C)C(=O)COc1ccccc1C=O . Reported melting point?
Return: 89 to 91 °C
